Test: physchem
Format: physicochemical
Observed property: pKa
I'd appreciate a reply containing only the number, no unit.

Consider the compound shown here: O=[N+]([O-])c1ccc2cn[nH]c2c1 [6-Nitroindazole, reference compound] What is its recorded pKa?
6.8

Which pKa reading was recorded for the compound c1cn[nH]c1 [Pyrazole, reference compound] ?
11.5

Give the measured pKa of N=C(N)NCCC[C@H](N)C(=O)O [Arginine, reference compound] .
9.1

Item `O=c1[nH]c(=O)c2[nH]cnc2[nH]1` has what recorded pKa?
7

# query: pKa of entry `Nc1nc2nc[nH]c2c(=O)[nH]1`
6.7

Using the record for `Nc1ncnc2nc[nH]c12` , report its pKa.
7.2

Recorded pKa of `c1ncc2[nH]cnc2n1` , please.
5.5

Give its pKa value. Item: `O=c1[nH]c(=O)c2[nH]c(=O)[nH]c2[nH]1`
4.6

Entry under review: `Nc1nn[nH]n1` . Reported pKa?
8.1

// lookup pKa for `Oc1ncnc2[nH]ncc12`
6.1

Value lookup for pKa; key = `Nc1nc[nH]n1`
7.3

Quick one: pKa of c1ccc(-c2ncc[nH]2)cc1 [2-Phenylimidazole, reference compound] ?
8.8
